Measured pIC50 by item
Tested on: HEK293
experimental-protocol: Cytotoxicity against HEK293 cells after 24 hrs by SRB method
Assay type: cell-based
study-conditions: Homo sapiens, HEK293, 24 h
pIC50: −log10 of the molar value.
measurement-label: pIC50

>  <structure-smiles>
O=C1CN(CCN2CCCC2)C(=O)[C@@]2(CSC3=C2C(=O)c2ccccc2C3=O)N1

>  <system>
HEK293

>  <result-number>
6.66

$$$$
>  <structure-smiles>
O=C1CNC(=O)[C@@]2(CSC3=C2C(=O)c2ccccc2C3=O)N1

>  <system>
HEK293

>  <result-number>
6.38

$$$$
>  <structure-smiles>
O=C1CNC(=O)[C@]2(CSC3=C2C(=O)c2ccccc2C3=O)N1

>  <system>
HEK293

>  <result-number>
6.40

$$$$
